# credit: ChEMBL document CHEMBL1126392

# Subject of test: Tubulin alpha chain (Sus scrofa)
# Test: Concentration which causes polymerization of 50 % of the tubulin present, in 15 min at 37 C, as a ratio in comparison wth taxol (taxol ED50 = 0.7 to 0.8 uM)
# Format: functional
The following compounds are shown together with reported Ratio values.

{"Smiles input": "CC(=O)O[C@H]1C(=O)[C@@]2(C)[C@H]([C@H](OC(=O)c3ccccc3)[C@]3(O)C[C@H](OC(=O)[C@H](O)[C@@H](NC(=O)c4ccc(C)cc4)c4ccccc4)C(C)=C1C3(C)C)[C@]1(OC(C)=O)CO[C@@H]1C[C@@H]2O", "Ratio": 1.6}
{"Smiles input": "CC(=O)O[C@H]1C(=O)[C@@]2(C)[C@H]([C@H](OC(=O)c3ccccc3)[C@]3(O)C[C@H](OC(=O)[C@H](O)[C@@H](NC(=O)c4ccccc4)c4ccc(C)cc4)C(C)=C1C3(C)C)[C@]1(OC(C)=O)CO[C@@H]1C[C@@H]2O", "Ratio": 2.4}
{"Smiles input": "CC(=O)O[C@H]1C(=O)[C@@]2(C)[C@H]([C@H](OC(=O)c3ccccc3)[C@]3(O)C[C@H](OC(=O)[C@H](O)[C@@H](NC(=O)c4ccc(C(F)(F)F)cc4)c4ccccc4)C(C)=C1C3(C)C)[C@]1(OC(C)=O)CO[C@@H]1C[C@@H]2O", "Ratio": 6}
